# assay-target: HERG (Homo sapiens)
# assay: HERG Patch Clamp EP
# test-settings: human, HEK cells stably overexpressing HERG
Note to self: class labels come from recorded inhibition at 10 µM, ranges listed here: b0 = under 20%, b1 = from 20% up to 50%, b2 = 50% and over

COc1ccc(CCN2C(=O)N(NS(C)(=O)=O)CC2c2ccc3c(c2)OCCO3)cc1 (stereo not drawn) | b1
COc1ccc(CCCN2C(=O)N(N)CC2c2ccc(C(C)(C)C)cc2)cc1 (stereo not drawn) | b2
COc1ccc(CCN2C(=O)N(NS(N)(=O)=O)CC2c2ccc(C)c(C)c2)cc1 (stereo not drawn) | b0
COc1ccc(CCN2C(=O)N(NS(C)(=O)=O)CC2c2ccc(C)c(C)c2)cc1 (stereo not drawn) | b0
COc1ccc(CCN2C(=O)N(NS(C)(=O)=O)CC2c2ccc(OC(F)F)cc2)cc1 (stereo not drawn) | b2

**Query** // return the class label for COc1ccc(CCN2C(=O)N(NS(C)(=O)=O)CC2c2ccc(C3CC3)cc2)cc1 (stereo not drawn)
**Result** b1

**Query** Tag the class for COc1ccc(CCN2C(=O)N(NCc3ccc(N(C)C)cc3)CC2c2ccc(OC)cc2)cc1 (stereo not drawn)
**Result** b1

**Query** Exercise: read the entry COc1ccc(CCN2C(=O)N(N)CC2c2ccc(C3CC3)cc2)cc1 (stereo not drawn) and state which class it falls under.
**Result** b1

**Query** Band assignment needed for COc1ccc(CCN2C(=O)N(NC(C)=O)CC2Cc2ccc(C(C)(C)C)cc2)cc1 (stereo not drawn) please.
**Result** b1

**Query** Please indicate the class for COc1ccc(CCN2C(=O)N(NS(=O)(=O)CF)CC2c2ccc(OC)cc2)cc1 (stereo not drawn) based on its inhibition at 10 µM.
**Result** b0

**Query** Band of COc1ccc(CCN2C(=O)N(N(CCn3ccnc3)C(C)=O)CC2c2ccc(C(C)(C)C)cc2)cc1 (stereo not drawn) ?
**Result** b2

**Query** Pick a category. Item: COc1ccc(CCN2C(=O)N(NS(C)(=O)=O)CC2C2CCCCC2)cc1 (stereo not drawn)
**Result** b0

**Query** Exam item: assign COc1ccc(CCN2C(=O)N(NCc3ccc(N(C)C)cc3)CC2c2ccc(C)c(C)c2)cc1 (stereo not drawn) to the correct category.
**Result** b2

**Query** For COc1ccc(CCCN2C(=O)N(NS(=O)(=O)CS(C)(=O)=O)CC2c2ccc(C3CC3)cc2)cc1 (stereo not drawn) , which inhibition at 10 µM bin applies?
**Result** b2

**Query** Place this molecule in its band: CCCCC1CN(NS(C)(=O)=O)C(=O)N1CCc1ccc(OC)cc1 (stereo not drawn)
**Result** b0

**Query** In plain terms, what class is COc1ccc(CCN2C(=O)N(NS(N)(=O)=O)CC2c2ccc(C3CC3)cc2)cc1 (stereo not drawn) ?
**Result** b2

----------
# assay-target: HERG (Homo sapiens, UniProt Q12809)
# Sequence (Q12809 whole entry): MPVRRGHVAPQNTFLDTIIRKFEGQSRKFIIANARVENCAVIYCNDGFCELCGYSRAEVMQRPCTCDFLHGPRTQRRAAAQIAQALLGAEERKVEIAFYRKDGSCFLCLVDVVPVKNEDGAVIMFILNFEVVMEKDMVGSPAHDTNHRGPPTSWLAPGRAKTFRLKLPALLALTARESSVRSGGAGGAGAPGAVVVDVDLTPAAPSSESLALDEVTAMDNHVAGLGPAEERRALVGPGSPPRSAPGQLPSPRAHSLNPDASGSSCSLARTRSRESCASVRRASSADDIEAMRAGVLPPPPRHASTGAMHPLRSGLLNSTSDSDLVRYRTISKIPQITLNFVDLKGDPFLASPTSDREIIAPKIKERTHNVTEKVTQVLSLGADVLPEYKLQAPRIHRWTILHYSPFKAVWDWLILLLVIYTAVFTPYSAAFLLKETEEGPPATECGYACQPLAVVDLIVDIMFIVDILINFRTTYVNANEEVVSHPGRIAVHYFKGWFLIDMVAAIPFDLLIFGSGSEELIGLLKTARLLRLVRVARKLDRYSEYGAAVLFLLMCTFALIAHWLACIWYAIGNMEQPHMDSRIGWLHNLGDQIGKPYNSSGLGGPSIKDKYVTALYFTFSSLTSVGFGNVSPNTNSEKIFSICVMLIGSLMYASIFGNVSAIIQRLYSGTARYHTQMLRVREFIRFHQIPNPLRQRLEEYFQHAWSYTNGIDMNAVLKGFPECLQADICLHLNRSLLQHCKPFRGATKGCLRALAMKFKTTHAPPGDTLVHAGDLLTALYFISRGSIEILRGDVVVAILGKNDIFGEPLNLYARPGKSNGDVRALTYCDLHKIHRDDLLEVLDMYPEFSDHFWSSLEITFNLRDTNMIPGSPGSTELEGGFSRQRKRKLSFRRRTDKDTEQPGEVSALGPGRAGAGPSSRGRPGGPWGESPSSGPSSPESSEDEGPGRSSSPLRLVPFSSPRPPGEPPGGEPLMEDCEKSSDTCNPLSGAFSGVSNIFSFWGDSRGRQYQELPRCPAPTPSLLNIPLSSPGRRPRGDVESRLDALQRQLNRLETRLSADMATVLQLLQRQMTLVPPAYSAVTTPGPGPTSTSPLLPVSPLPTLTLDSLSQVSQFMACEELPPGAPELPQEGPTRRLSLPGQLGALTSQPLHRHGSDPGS
# assay: HERG Patch Clamp EP
# test-settings: human, HEK cells stably overexpressing HERG
endpoint: inhibition at 10 µM (%)
Answers are plain numbers, in %.

COc1ccc(CCN2C(=O)N(NS(=O)(=O)Cc3cccnc3)CC2c2ccc(C)cc2)cc1 (stereo not shown) | 38
COc1ccc(CCN2C(=O)N(NS(=O)(=O)CC(F)(F)F)CC2c2ccc(C(C)(C)C)cc2)cc1 (stereo not shown) | 56
CC(C)(C)c1ccc(C2CN(NS(C)(=O)=O)C(=O)N2CCCc2ccccc2)cc1 (stereo not shown) | 65

**Query** For the compound shown here, COc1ccc(CCN2C(=O)N(NS(N)(=O)=O)CC2c2ccc(C(C)(C)C)cc2)cc1 (stereo not shown) , give the reported inhibition at 10 µM.
**Result** 62

----------
# assay-target: Kv1.5 (Homo sapiens, UniProt P22460)
# Construct: expressed in transfected cells; host or cells: HEK or LTK- cells
# Sequence (P22460 whole entry): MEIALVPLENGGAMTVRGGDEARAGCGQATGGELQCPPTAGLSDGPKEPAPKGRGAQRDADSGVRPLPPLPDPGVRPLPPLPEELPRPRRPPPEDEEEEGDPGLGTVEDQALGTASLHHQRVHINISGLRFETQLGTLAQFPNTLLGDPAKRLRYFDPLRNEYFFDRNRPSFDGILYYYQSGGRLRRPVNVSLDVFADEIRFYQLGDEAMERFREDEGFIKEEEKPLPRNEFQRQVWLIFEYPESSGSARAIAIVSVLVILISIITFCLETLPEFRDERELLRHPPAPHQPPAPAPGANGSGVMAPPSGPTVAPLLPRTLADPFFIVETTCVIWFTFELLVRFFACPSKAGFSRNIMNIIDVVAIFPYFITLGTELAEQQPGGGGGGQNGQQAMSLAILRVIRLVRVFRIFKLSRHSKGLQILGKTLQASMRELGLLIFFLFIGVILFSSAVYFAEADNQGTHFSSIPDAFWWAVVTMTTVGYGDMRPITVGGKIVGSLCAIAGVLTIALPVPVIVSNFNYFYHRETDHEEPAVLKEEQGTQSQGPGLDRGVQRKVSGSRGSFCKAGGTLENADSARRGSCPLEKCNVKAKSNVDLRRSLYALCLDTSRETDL
# assay: Kv1.5 Patch Clamp EP
# Format: cell-based
# test-settings: 1.0 μM, single point; whole cell patch clamp, Kv1.5 stably over expressed in HEK or LTK- cells
# Experimental: The external solution is standard Tyrodes solution. […] Inhibition was measured at the end of the 1 second pulses and expressed relative to controls. Initial Kv1.5 inhibition is estimated by single point determinations done at 1 μM.
endpoint: inhibition at 1 µM (%)
Numbers only, in %.

Example entries and their recorded answers appear below.
COc1ccc(CCN2C(=O)N(NS(=O)(=O)CC(=O)O)CC2c2ccc(C3CC3)cc2)cc1 (stereo not drawn) | 9
COc1ccc(CCN2C(=O)N(NS(C)(=O)=O)CC2C2(c3ccc(F)cc3)CC2)cc1 (stereo not drawn) | 11
COc1ccc(CCN2C(=O)N(NS(C)(=O)=O)CC2c2ccc(C3CC3)cc2)cc1 (stereo not drawn) | 89

Hey, can you go through the list below and give me inhibition at 1 µM for every item?
1. CCCS(=O)(=O)NN1CC(c2ccc(C3CC3)cc2)N(CCc2ccc(OC)cc2)C1=O (stereo not drawn)
2. COc1ccc(CCN2C(=O)N(NS(C)(=O)=O)CC2c2ccc3c(c2)OC(F)(F)O3)cc1 (stereo not drawn)
3. COc1ccc(CCN2C(=O)N(NS(C)(=O)=O)CC2c2ccc3ncccc3c2)cc1 (stereo not drawn)
4. COc1ccc(CCN2C(=O)N(NCc3ccccn3)CC2c2ccc(C)c(C)c2)cc1 (stereo not drawn)
5. CCCCC1CN(NS(C)(=O)=O)C(=O)N1CCc1ccc(OC)cc1 (stereo not drawn)
6. COc1ccc(CCCN2C(=O)N(NS(=O)(=O)CS(C)(=O)=O)CC2c2ccc(C3CC3)cc2)cc1 (stereo not drawn)

**Result**
88
48
21
46
8
91
